Origin of values: patent US7417045B2

Below, each entry is listed alongside its reported pIC50.
molecular target: human CXCR3 (N-delta 4) (Homo sapiens, UniProt P49682); construct: CD8 leader (N); Flag tag; expressed in transfected cells; membranes; test: Human CXCR3 (N-delta 4) Scintillation Proximity Assay (SPA), [125I] IP-10 binding; conditions: IC50 rating; [125I] IP-10 displacement, Ba/F3-hCXCR3 (N-delta 4) membranes
Sequence (P49682 5-368 limits assumed): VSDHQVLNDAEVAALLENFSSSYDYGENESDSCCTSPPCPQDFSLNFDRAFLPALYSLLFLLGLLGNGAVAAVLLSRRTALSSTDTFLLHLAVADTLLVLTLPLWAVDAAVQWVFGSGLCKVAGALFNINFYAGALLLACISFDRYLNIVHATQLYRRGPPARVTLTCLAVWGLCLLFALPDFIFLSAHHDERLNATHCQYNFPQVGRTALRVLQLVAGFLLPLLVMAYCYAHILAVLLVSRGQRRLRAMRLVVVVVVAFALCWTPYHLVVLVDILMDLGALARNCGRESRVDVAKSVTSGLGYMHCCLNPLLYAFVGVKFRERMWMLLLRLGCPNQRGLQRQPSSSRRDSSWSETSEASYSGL
pIC50: −log10 of the molar value.

Please review the following examples before continuing.
| SMILES STRUCTURE | pIC50 |
| --- | --- |
| C[C@H]1CN(c2ncc(C3=NCCN3)cc2Cl)CCN1C1CCN(Cc2ccc(Cl)cc2)CC1 | > 7.60 |
| CC[C@H]1CN(c2ncc(C3=NCCN3)cc2Cl)CCN1C1CCN(C(=O)c2ccc(Cl)cc2I)CC1 | > 7.60 |
| CC[C@H]1CN(c2ncc(C3=NCCN3)cc2Cl)CCN1C1CCN(C(=O)c2ccc(C#N)cc2)CC1 | > 7.60 |

Incoming: Fetch value of pIC50 on human CXCR3 (N-delta 4) (Homo sapiens, UniProt P49682) for CC[C@H]1CN(c2ncc(-c3ncc[nH]3)cc2Cl)CCN1C1CCN(C(=O)c2ccc(Cl)cc2)CC1 .
Outgoing: > 7.60

Incoming: Fetch value of pIC50 on human CXCR3 (N-delta 4) (Homo sapiens, UniProt P49682) for CC[C@H]1CN(c2ncc(C3=NCCCN3)cc2Cl)CCN1C1CCN(C(=O)c2ccc(Cl)cc2)CC1 .
Outgoing: 7.00 to 7.60

Incoming: Fetch value of pIC50 on human CXCR3 (N-delta 4) (Homo sapiens, UniProt P49682) for CC[C@H]1CN(c2ncc(-c3ncc[nH]3)cc2Cl)CCN1C1CCN(C(=O)c2ccc(-n3cccn3)cc2)CC1 .
Outgoing: 7.00 to 7.60

Incoming: Fetch value of pIC50 on human CXCR3 (N-delta 4) (Homo sapiens, UniProt P49682) for CC[C@H]1CN(c2ncc(-c3ncc[nH]3)cc2Cl)CCN1C1CCN([C@@H](C(=O)OC)c2ccc(Br)cc2)CC1 .
Outgoing: > 7.60
